# system-under-test: serotoninergic receptor 5-HT2C (Homo sapiens, UniProt P28335)
# Construct: expressed in transfected cells; host or cells: HEK-293 cells
# Sequence (P28335 33-458): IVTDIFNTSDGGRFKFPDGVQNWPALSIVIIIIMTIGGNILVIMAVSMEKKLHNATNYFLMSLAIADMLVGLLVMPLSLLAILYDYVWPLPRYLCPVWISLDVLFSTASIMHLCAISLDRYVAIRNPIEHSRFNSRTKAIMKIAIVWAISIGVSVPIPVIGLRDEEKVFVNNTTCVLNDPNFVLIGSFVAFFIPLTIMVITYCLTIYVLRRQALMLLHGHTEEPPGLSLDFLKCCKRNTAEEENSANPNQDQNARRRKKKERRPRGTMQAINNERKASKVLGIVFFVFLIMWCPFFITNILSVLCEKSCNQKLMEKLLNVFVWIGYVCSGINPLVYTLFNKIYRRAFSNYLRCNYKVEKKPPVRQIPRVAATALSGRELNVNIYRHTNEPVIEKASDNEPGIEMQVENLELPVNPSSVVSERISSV
# procedure-text: Binding assay 5-HT2C (h), [3H]mesulergine, HEK-293 cells
# conditions: read-out: 5-HT2C [%]
Rule: Met for inhibition at 1 µM not less than 50%, Not met for anything less.

[
  {
    "smiles-data": "O=c1[nH]c2ccc(S(=O)(=O)NCCCN3CCN(c4nsc5ccccc45)CC3)cc2o1",
    "assigned-category": "Met"
  },
  {
    "smiles-data": "O=S(=O)(NCCCN1CCN(c2nsc3ccccc23)CC1)c1csc2ccccc12",
    "assigned-category": "Met"
  },
  {
    "smiles-data": "O=S(=O)(NCCCCN1CCC(c2noc3cc(F)ccc23)CC1)c1ccc2cc(Cl)ccc2c1",
    "assigned-category": "Met"
  },
  {
    "smiles-data": "O=S(=O)(NCCN1CCC(c2noc3cc(F)ccc23)CC1)c1cccc2ccccc12",
    "assigned-category": "Not met"
  },
  {
    "smiles-data": "O=c1[nH]c2cccc(N3CCN(CCCNS(=O)(=O)c4ccc5ccccc5c4)CC3)c2[nH]1",
    "assigned-category": "Not met"
  },
  {
    "smiles-data": "O=S(=O)(NCCCN1CCN(c2nsc3ccccc23)CC1)c1cccc(Br)c1",
    "assigned-category": "Met"
  },
  {
    "smiles-data": "O=S(=O)(NCCCN1CCN(c2nsc3ccccc23)CC1)c1ccc(F)c(F)c1",
    "assigned-category": "Met"
  },
  {
    "smiles-data": "O=S(=O)(NCCN1CCN(c2nsc3ccccc23)CC1)c1cccc2ccccc12",
    "assigned-category": "Not met"
  },
  {
    "smiles-data": "O=S(=O)(NCCCN1CCN(c2nsc3ccccc23)CC1)c1ccc2c(c1)OCO2",
    "assigned-category": "Met"
  },
  {
    "smiles-data": "O=S(=O)(NCCCN1CCN(c2nsc3ccccc23)CC1)c1ccc(C(F)(F)F)cc1",
    "assigned-category": "Met"
  },
  {
    "smiles-data": "O=S(=O)(NCCCN1CCN(c2nsc3ccccc23)CC1)c1cccc2scnc12",
    "assigned-category": "Met"
  },
  {
    "smiles-data": "Cc1c(S(=O)(=O)NCCCCN2CCN(c3nsc4ccccc34)CC2)sc2ccc(F)cc12",
    "assigned-category": "Met"
  },
  {
    "smiles-data": "O=S(=O)(NCCCCN1CCN(c2cccc3[nH]ccc23)CC1)c1cc2ccccc2s1",
    "assigned-category": "Not met"
  },
  {
    "smiles-data": "O=S(=O)(NCCCCN1CCC(c2noc3cc(F)ccc23)CC1)c1cc2ccc(Cl)cc2s1",
    "assigned-category": "Met"
  },
  {
    "smiles-data": "O=S(=O)(NCCCN1CCN(c2nsc3ccccc23)CC1)c1cccs1",
    "assigned-category": "Met"
  }
]

###

# system-under-test: serotoninergic 5-HT1A receptor (Homo sapiens)
# Sequence (P08908 whole entry): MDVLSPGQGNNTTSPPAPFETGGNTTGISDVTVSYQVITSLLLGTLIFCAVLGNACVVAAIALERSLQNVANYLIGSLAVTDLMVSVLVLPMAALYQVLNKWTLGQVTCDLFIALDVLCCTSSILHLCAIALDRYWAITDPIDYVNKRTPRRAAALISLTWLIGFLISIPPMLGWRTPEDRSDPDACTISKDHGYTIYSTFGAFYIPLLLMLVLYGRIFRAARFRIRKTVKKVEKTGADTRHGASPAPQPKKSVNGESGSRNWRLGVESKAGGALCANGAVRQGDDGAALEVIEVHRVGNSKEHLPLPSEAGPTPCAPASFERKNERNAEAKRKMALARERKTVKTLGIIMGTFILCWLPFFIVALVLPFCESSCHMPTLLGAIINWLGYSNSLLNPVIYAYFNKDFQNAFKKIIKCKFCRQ
# procedure-text: Binding assay 5-HT1A (h), [3H]8-OH-DPAT, HEK-293 cells
# Design: expressed in transfected cells; host or cells: HEK-293 cells
# conditions: read-out: 5-HT1A
measurement-name: inhibition at 1 µM (%)

[
  {
    "compound": "O=S(=O)(NCCCCN1CCN(c2noc3ccccc23)CC1)c1ccc2cc(Cl)ccc2c1 [Compound 79]",
    "measurement-name": "inhibition at 1 µM",
    "measurement-units": "%",
    "val": 84
  },
  {
    "compound": "O=S(=O)(NCCCN1CCN(c2cccc3c2OCCO3)CC1)c1cccc(Br)c1 [Compound 413]",
    "measurement-name": "inhibition at 1 µM",
    "measurement-units": "%",
    "val": 88
  },
  {
    "compound": "O=S(=O)(NCCN1CCC(c2noc3cc(F)ccc23)CC1)c1cccc2ccccc12 [Compound 23]",
    "measurement-name": "inhibition at 1 µM",
    "measurement-units": "%",
    "val": 85
  },
  {
    "compound": "O=S(=O)(NCCCN1CCC(c2noc3cc(F)ccc23)CC1)c1ccc2c(c1)OCCO2 [Compound 355]",
    "measurement-name": "inhibition at 1 µM",
    "measurement-units": "%",
    "val": 60
  },
  {
    "compound": "O=S(=O)(NCCCN1CCN(c2cccc3c2OCCO3)CC1)c1ccc(-c2ccccc2)cc1 [Compound 415]",
    "measurement-name": "inhibition at 1 µM",
    "measurement-units": "%",
    "val": 96
  },
  {
    "compound": "O=S(=O)(NCCCN1CCC(c2noc3cc(F)ccc23)CC1)c1ccc(F)cc1 [Compound 326]",
    "measurement-name": "inhibition at 1 µM",
    "measurement-units": "%",
    "val": 59
  }
]
